tested-target: HLA-B*5401 (human)
test-protocol: competition vs 125I-labelled probe peptide, purified HLA, gel filtration
quantity-name: IC50 (nM)

[[record]]
binder = "FPASPLDSTI (10-mer analog of the HER2/neu peptide starting at position 995) [Her2/neu.995.F1I10]"
observed_measurement = 14

[[record]]
binder = "FPLDSTFYRSI (11-mer analog of the HER2/neu peptide starting at position 998) [Her2/neu.998.F1I11]"
observed_measurement = 2.4

[[record]]
binder = "FPSPREGPLPI (11-mer analog of the HER2/neu peptide starting at position 1149) [Her2/neu.1149.F1I11]"
observed_measurement = 263

[[record]]
binder = "FPASPLDSTF (10-mer analog of the HER2/neu peptide starting at position 995) [Her2/neu.995.F1]"
observed_measurement = 200

